Molecular target: T1, human RXFP1 (human, UniProt Q9HBX9 1-757)
T1 sequence (looked up): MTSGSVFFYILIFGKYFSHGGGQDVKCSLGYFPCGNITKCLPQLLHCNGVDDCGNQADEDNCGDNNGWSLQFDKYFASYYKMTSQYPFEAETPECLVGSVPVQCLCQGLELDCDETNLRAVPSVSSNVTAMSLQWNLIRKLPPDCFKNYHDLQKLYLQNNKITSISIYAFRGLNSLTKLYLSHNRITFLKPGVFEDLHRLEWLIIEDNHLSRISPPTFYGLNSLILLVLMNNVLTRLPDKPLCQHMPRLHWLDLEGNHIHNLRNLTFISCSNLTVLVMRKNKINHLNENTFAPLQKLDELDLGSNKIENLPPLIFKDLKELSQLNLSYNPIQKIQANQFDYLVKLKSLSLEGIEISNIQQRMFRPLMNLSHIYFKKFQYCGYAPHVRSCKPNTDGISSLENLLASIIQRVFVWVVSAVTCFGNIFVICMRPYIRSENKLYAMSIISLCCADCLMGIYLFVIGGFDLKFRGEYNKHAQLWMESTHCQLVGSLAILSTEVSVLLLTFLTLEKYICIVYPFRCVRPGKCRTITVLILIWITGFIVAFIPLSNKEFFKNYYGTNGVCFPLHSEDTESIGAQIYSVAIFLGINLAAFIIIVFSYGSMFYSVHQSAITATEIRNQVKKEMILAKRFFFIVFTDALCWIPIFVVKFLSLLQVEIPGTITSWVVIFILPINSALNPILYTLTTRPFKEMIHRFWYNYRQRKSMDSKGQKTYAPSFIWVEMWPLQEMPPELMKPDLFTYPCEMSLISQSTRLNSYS
Assay: cell-based or functional assay
Numbered stars: 1 amine (or outer) side, 2 acyl side, 3 side chain; on linkers, the order of the positions; unused ones are H or OH. Square brackets hold non-standard residues; d marks the D form. Side chains are listed from the residue outwards. * marks the point of attachment. TTDS = 4-[3-[2-[2-(3-aminopropoxy)ethoxy]ethoxy]propylamino]-4-oxo-butanoyl; γGlu = O=C(O)[C@H](CCC(=O)[*:2])N[*:1]; Palmitoyl = CCCCCCCCCCCCCCCC(=O)*; Aib = CC(C)(N)C(=O)O
Measure: EMax, OVCAR 5 cells (cAMP) (%)

>>> value_reported("Ac-LEGREKVRAK(Ac)I[Aib][Aib]EGK([TTDS-TTDS-TTDS-γGlu-γGlu-γGlu-Palmitoyl])SQWS[Aib]RKK(Ac)-NH2 [Relaxin peptide analogue of SEQ ID NO: 63]")
97
>>> value_reported("Ac-LEGREKVRAK(Ac)I[Aib][Aib]EGK([TTDS-TTDS-TTDS-γGlu-γGlu-γGlu-Palmitoyl])STFVRRAK(Ac)-NH2 [Relaxin peptide analogue of SEQ ID NO: 94]")
88
